For each of the molecules below, state its ED50.
tested on: Mus musculus; assay: Antiarrhythmic activity in sc dosed Swiss albino mouse assessed as protection against chloroform-induced ventricular fibrillation; type: functional; conditions: Heart
Please give a number only; it is taken to be in µmol/kg.

Enquiry: Give the reported ED50 for this molecule. Cc1cccc(C)c1NC(=O)CN [GLYCINEXYLIDIDE]
Return: 900

Enquiry: Given Cc1cccc(C)c1NC(=O)C(C)N (stereo unspecified) [TOCAINIDE] , respond with its ED50.
Return: 1300

Enquiry: Using known records, supply ED50 for `CCCCOc1cc(C)c(N(C)C(=O)CN)c(C)c1.O=C(O)C(=O)O`
Return: 270

Enquiry: Consider the molecule `CCN(CC)CC(=O)Nc1c(C)cccc1C` . State its measured ED50.
Return: 260

Enquiry: Quick one: give measured ED50 for `CCCOc1cc(C)c(N(C)C(=O)CN)c(C)c1.O=C(O)C(=O)O`
Return: 340

Enquiry: Return the recorded ED50 value; entry: `CCCOc1cc(C)c(N(CC)C(=O)CN)c(C)c1.O=C(O)C(=O)O`
Return: 160

These data points were gathered from ChEMBL document CHEMBL3244116.
